Recorded koff for the following binders
# assayed_target: T1, huCTLA4 (antigen of the Octet experiments) (human, UniProt P16410 37-162, limits assumed)
# T1 construct: Construct of the soluble antigen not described; also called the antigen
# T1 sequence (P16410 37-162 limits assumed): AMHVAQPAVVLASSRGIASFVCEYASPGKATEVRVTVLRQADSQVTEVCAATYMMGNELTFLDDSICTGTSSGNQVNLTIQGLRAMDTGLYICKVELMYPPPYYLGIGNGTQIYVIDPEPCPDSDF
# protocol_description: BLI (Octet Red96), antibody on anti-hIgG Fc biosensor, huCTLA4 in solution, 1:1 fit

binder	koff, s⁻¹
Humanized HC2 + LC2 (PP4634) (antibody, IgG1, V domains shown, Humanized L3D10; also called H3107 + L3107) VH: QVQLQESGPGLVKPSETLSLTCTVSGFSLTSYGLSWIRQPPGKGLEWIGYIWYDGNTNFHSSLKSRVTISKDTSKSQVSLKLSSVTAADTAVYYCAKTEGHYYGSNYGYYALDYWGQGTLVTVSS VL: DIQMTQSPSSLSASVGDRVTITCRASENIYSNLAWYQQKQGKAPKLLLYAATNLQDGVPSRFSGSGSGTDYTLTISSLQPEDFATYFCQHLWGTPYTFGQGTKLEIK	0.0019
Humanized HC2 + LC1 (PP4633) (antibody, IgG1, V domains shown, Humanized L3D10; also called H3107 + L3106) VH: QVQLQESGPGLVKPSETLSLTCTVSGFSLTSYGLSWIRQPPGKGLEWIGYIWYDGNTNFHSSLKSRVTISKDTSKSQVSLKLSSVTAADTAVYYCAKTEGHYYGSNYGYYALDYWGQGTLVTVSS VL: DIQMTQSPSSLSASVGDRVTITCRASENIYSNLAWYQQKPGKAPKLLLYAATNLQSGVPSRFSGSGSGTDFTLTISSLQPEDFATYYCQHLWGTPYTFGGGTKLEIK	0.0014
Humanized HC1 + LC1 (PP4630) (antibody, IgG1, V domains shown, Humanized L3D10; also called H3106 + L3106) VH: QVQLQESGPGLVKPSETLSLTCTVSGFSLTSYGLSWIRQPPGKGLEWIGYIWYDGNTNFHPSLKSRVTISKDTSKNQFSLKLSSVTAADTAVYYCAKTEGHYYGSNYGYYALDYWGQGTSVTVSS VL: DIQMTQSPSSLSASVGDRVTITCRASENIYSNLAWYQQKPGKAPKLLLYAATNLQSGVPSRFSGSGSGTDFTLTISSLQPEDFATYYCQHLWGTPYTFGGGTKLEIK	0.0018
Humanized HC3 + LC3 (PP4638) (antibody, IgG1, V domains shown, Humanized L3D10; also called H3108 + L3108) VH: QVQLQESGPGLVKPSETLSLTCTVSGFSLTSYGLSWIRQPPGKGLEWIGYIWYDGNTNFHSPLKSRVTISVDTSKNQFSLKLSSVTAADTAVYYCAKTEGHYYGSNYGYYALDYWGQGTLVTVSS VL: DIQMTQSPSSLSASVGDRVTITCRASENIYSNLAWYQQKPGKAPKLLIYAATSLQSGVPSRFSGSGSGTDFTLTISSLQPEDFATYYCQHLWGTPYTFGGGTKVEIK	0.0023
